- tested-on: Group IIE secretory phospholipase A2 (Mus musculus, UniProt Q9QUL3)
- Sequence (Q9QUL3 whole entry): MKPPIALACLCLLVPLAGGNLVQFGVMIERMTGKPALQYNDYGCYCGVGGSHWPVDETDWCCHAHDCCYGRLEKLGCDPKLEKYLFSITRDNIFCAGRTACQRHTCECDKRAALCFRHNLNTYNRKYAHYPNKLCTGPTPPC
- experiment-description: Inhibition of mouse recombinant sPLA2 G2E
endpoint: IC50 (nM)
Supply the numeric figure in nM, leaving out any unit text.

Request the reported IC50 associated with Cc1c(C(=O)C(N)=O)c2c(OCC(=O)O)cccc2n1Cc1ccccc1 400

Field entry: Cc1cc(OCC(=O)O)c2c(C(=O)C(N)=O)c(C)n(Cc3ccccc3)c2c1 400

Next compound up: CCc1c(C(=O)C(N)=O)c2c(OCC(=O)O)cc(C)cc2n1Cc1ccccc1 75

Repeat for the following compound: CCc1c(C(=O)C(N)=O)c2c(OCC(=O)O)cccc2n1Cc1ccccc1 [VARESPLADIB] 75

* * *

- tested-on: Phospholipase A2 (Mus musculus)
- Sequence (Q9Z0Y2 whole entry): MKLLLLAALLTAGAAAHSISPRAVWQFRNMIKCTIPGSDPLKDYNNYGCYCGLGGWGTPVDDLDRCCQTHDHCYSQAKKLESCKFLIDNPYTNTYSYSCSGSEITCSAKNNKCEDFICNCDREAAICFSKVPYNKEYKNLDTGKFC
- experiment-description: Inhibition of mouse recombinant sPLA2 G1B
endpoint: IC50 (nM)
Quick reminder: number only, in nM, skip the unit.

Looking for the measured IC50 of CCc1c(C(=O)C(N)=O)c2c(OCC(=O)O)cc(C)cc2n1Cc1ccccc1 , can you help? 200

Another compound: CCc1c(C(=O)C(N)=O)c2c(OCC(=O)O)cccc2n1Cc1ccccc1 140

Now the compound Cc1cc(OCC(=O)O)c2c(C(=O)C(N)=O)c(C)n(Cc3ccccc3)c2c1 2000

Next entry: Cc1c(C(=O)C(N)=O)c2c(OCC(=O)O)cccc2n1Cc1ccccc1 2200

* * *

- tested-on: Phospholipase A2 (Homo sapiens)
- Sequence (P04054 whole entry): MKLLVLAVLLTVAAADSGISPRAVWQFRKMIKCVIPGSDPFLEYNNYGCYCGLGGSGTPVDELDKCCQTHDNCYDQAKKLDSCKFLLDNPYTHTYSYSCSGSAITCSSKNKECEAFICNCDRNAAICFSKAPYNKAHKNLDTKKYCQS
- experiment-description: Inhibition of human recombinant sPLA2 G1B
Exercise: state measured pIC50 for each of the compounds provided.
Scale for pIC50: -log10 of concentration given in mol/L; no unit attached.

May I ask what pIC50 has been recorded for Cc1cc(OCC(=O)O)c2c(C(=O)C(N)=O)c(C)n(Cc3ccccc3)c2c1 ? 5.70

Again, but for CCc1c(C(=O)C(N)=O)c2c(OCC(=O)O)cccc2n1Cc1ccccc1 [VARESPLADIB] 6.12

Next: Cc1c(C(=O)C(N)=O)c2c(OCC(=O)O)cccc2n1Cc1ccccc1 5.60

Also need CCc1c(C(=O)C(N)=O)c2c(OCC(=O)O)cc(C)cc2n1Cc1ccccc1 , thanks. 6.10

* * *

- tested-on: Group IIE secretory phospholipase A2 (Homo sapiens, UniProt Q9NZK7)
- Sequence (Q9NZK7 whole entry): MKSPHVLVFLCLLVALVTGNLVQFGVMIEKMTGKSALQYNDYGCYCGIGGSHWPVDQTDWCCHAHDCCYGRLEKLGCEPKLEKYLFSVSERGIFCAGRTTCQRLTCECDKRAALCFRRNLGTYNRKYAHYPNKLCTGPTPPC
- experiment-description: Inhibition of human recombinant sPLA2 G2E
endpoint: pIC50
Just so you know, pIC50 here is -log10 of the concentration in molar units; reply with that number alone.

Please tell me: pIC50 of Cc1c(C(=O)C(N)=O)c2c(OCC(=O)O)cccc2n1Cc1ccccc1 , system Group IIE secretory phospholipase A2 (Homo sapiens, UniProt Q9NZK7)? 7.12

Subsequent entry: CCc1c(C(=O)C(N)=O)c2c(OCC(=O)O)cccc2n1Cc1ccccc1 7.30

How about Cc1cc(OCC(=O)O)c2c(C(=O)C(N)=O)c(C)n(Cc3ccccc3)c2c1 ? 6.90

Request: CCc1c(C(=O)C(N)=O)c2c(OCC(=O)O)cc(C)cc2n1Cc1ccccc1 7.30

* * *

- tested-on: Phospholipase A2, membrane associated (Mus musculus, UniProt P31482)
- Sequence (P31482 whole entry): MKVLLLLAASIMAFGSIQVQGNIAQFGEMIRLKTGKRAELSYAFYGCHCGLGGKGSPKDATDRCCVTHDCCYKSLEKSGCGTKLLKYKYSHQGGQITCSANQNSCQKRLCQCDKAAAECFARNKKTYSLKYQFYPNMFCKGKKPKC
- experiment-description: Inhibition of mouse recombinant sPLA2 G2A
Field: pIC50. Provide a value for each of the molecules that follow.
# pIC50 is unitless: minus log10 of the molar concentration; print number only

Which value of pIC50 has been reported for Cc1c(C(=O)C(N)=O)c2c(OCC(=O)O)cccc2n1Cc1ccccc1 in the records? 6.90

And the next one, Cc1cc(OCC(=O)O)c2c(C(=O)C(N)=O)c(C)n(Cc3ccccc3)c2c1 ? 6.90

Note, next up: CCc1c(C(=O)C(N)=O)c2c(OCC(=O)O)cccc2n1Cc1ccccc1 [VARESPLADIB] 7.15

* * *

- tested-on: Group 10 secretory phospholipase A2 (Homo sapiens, UniProt O15496)
- Sequence (O15496 whole entry): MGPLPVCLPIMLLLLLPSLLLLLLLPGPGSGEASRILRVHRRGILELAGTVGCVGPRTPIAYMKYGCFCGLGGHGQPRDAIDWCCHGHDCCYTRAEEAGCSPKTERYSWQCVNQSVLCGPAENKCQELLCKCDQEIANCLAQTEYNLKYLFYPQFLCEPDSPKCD
- experiment-description: Inhibition of human recombinant sPLA2 G10
endpoint: IC50 (nM)
Give the value, in units of nM, as a plain number.

Query the reported IC50 for Group 10 secretory phospholipase A2 (Homo sapiens, UniProt O15496); item: Cc1cc(OCC(=O)O)c2c(C(=O)C(N)=O)c(C)n(Cc3ccccc3)c2c1 2200

Another compound: Cc1c(C(=O)C(N)=O)c2c(OCC(=O)O)cccc2n1Cc1ccccc1 2000

* * *

Provide the recorded pIC50 for the entries that follow.
- tested-on: UniProt:P97391
- Sequence (P97391 whole entry): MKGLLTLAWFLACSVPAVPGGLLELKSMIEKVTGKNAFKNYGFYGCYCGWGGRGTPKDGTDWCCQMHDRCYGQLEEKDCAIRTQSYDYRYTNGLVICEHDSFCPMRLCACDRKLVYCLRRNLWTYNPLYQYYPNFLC
- experiment-description: Inhibition of mouse recombinant sPLA2 G5
// returns pIC50 (minus log10 of molar concentration), number only

Quick one: pIC50 of CCc1c(C(=O)C(N)=O)c2c(OCC(=O)O)cccc2n1Cc1ccccc1 ? 6.12

And for Cc1cc(OCC(=O)O)c2c(C(=O)C(N)=O)c(C)n(Cc3ccccc3)c2c1 ? 6.07

Again, but for Cc1c(C(=O)C(N)=O)c2c(OCC(=O)O)cccc2n1Cc1ccccc1 6.00

* * *

Exercise: state measured pIC50 for each of the compounds provided.
- tested-on: Phospholipase A2 group V (Homo sapiens, UniProt P39877)
- Sequence (P39877 whole entry): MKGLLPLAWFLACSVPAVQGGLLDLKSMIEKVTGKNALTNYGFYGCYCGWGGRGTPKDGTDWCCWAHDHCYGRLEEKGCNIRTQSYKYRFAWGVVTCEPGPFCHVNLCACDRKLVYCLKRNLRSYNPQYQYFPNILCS
- experiment-description: Inhibition of human recombinant sPLA2 G5
Entry type: numeric. Quantity: pIC50, the -log10 of concentration in molar units.

Returns the measured pIC50 for the input compound. Input: Cc1c(C(=O)C(N)=O)c2c(OCC(=O)O)cccc2n1Cc1ccccc1 6.10

Now consider CCc1c(C(=O)C(N)=O)c2c(OCC(=O)O)cccc2n1Cc1ccccc1 [VARESPLADIB] and answer again. 6.30

Request: Cc1cc(OCC(=O)O)c2c(C(=O)C(N)=O)c(C)n(Cc3ccccc3)c2c1 6.10
